# protocolText: Human HepG2 cell viability assay in 384 well format
# Type: toxicity, cell-based
# Parameters: dose 125 nL, time 70.5 hour; concentration not given beside the values
# reportedConditions: HepG2 cells, read-out: Inhibition
measuredMetric: cytotoxicity at 70.5 h (%)
Write the answer as a number in %, unit excluded.

Solved entries:
[[record]]
compound = "CCc1nnc2n1CCN(C(=O)c1cc3ccccc3[nH]1)C2"
measuredmetric = "cytotoxicity at 70.5 h"
valuereported = -7.28

[[record]]
compound = "O=C(c1ccc(-c2ccc(O)nc2)s1)N1CCCCCC1"
measuredmetric = "cytotoxicity at 70.5 h"
valuereported = -10.4

[[record]]
compound = "Cc1csc(CN(C)CCCOc2cccc(C#N)c2)n1"
measuredmetric = "cytotoxicity at 70.5 h"
valuereported = 13.7

[[record]]
compound = "Cc1ccc(C2(C(=O)NCCCn3cccn3)CCOCC2)cc1"
measuredmetric = "cytotoxicity at 70.5 h"
valuereported = 14.4

[[record]]
compound = "CN(C)CCN1CCC2(CC1)CN(Cc1cccnc1)C(=O)CO2"
measuredmetric = "cytotoxicity at 70.5 h"
valuereported = -4.21

[[record]]
compound = "O=C1N[C@@H]2CCN(C(=O)C3CC3)[C@@H]2C(=O)N1c1ccccc1"
measuredmetric = "cytotoxicity at 70.5 h"
valuereported = -10.7

[[record]]
compound = "N#Cc1ccc(NCc2cccnc2N2CCC(C(N)=O)CC2)cn1"
measuredmetric = "cytotoxicity at 70.5 h"
valuereported = -7.33

[[record]]
compound = "CCN(Cc1ccc2c(c1)OCO2)C(=O)NC(C)Cn1cccn1 (centres undefined)"
measuredmetric = "cytotoxicity at 70.5 h"
valuereported = -12.9


Q: Could you tell me which cytotoxicity at 70.5 h is on file for CN1CCC2(CC1)CC(NC(=O)c1csnn1)c1ccccc1O2 (centres undefined) ?
Result: -0.343
